Documented IC50 across a set of compounds
Biological target: PI3K-gamma (Homo sapiens, UniProt P48736)
Sequence (P48736 whole entry, species assumed): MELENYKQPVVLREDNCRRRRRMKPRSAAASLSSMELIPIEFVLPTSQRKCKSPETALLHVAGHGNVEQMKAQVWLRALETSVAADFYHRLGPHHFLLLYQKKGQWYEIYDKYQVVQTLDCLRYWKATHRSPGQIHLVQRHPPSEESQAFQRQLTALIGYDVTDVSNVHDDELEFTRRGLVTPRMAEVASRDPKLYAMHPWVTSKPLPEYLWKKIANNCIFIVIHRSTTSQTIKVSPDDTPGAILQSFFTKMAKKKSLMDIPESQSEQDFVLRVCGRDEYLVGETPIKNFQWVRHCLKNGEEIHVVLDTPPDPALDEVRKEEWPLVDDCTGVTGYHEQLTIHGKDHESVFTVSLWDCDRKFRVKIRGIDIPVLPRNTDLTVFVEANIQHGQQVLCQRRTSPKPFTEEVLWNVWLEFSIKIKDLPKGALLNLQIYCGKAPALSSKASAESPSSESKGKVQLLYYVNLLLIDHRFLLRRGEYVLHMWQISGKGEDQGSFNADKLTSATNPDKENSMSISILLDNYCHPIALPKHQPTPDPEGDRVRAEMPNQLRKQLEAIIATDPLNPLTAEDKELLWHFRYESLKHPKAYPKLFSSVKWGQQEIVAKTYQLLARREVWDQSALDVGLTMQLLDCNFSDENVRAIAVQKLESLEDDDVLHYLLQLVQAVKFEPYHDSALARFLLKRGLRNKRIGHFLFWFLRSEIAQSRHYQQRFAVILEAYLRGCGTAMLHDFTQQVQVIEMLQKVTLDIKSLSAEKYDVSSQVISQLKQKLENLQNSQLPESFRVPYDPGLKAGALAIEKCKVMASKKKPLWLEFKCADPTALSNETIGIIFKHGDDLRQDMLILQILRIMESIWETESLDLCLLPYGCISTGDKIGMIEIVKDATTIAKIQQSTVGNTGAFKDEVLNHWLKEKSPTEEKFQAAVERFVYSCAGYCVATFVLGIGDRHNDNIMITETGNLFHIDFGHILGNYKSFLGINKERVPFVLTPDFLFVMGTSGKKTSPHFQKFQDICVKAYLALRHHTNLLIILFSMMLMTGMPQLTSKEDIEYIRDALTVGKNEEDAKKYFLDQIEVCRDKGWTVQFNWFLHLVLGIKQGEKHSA
Test: PI3K-gamma fluorescence polarization assay
Assay type: biochemical
Conditions: PI3Kγ Avg. IC50

{"compound": "COc1ccc2[nH]c(-c3c(C)nn(C)c3C)c(/C=C3\\Oc4ccc(NC(=O)Nc5ccc(C(=O)N(C)CCN(C)C)cc5)cc4C3=O)c2c1", "IC50 [nM]": 1.98}
{"compound": "CC(C)NC(=O)c1ccc(-c2cccc3c2c(/C=C2\\Oc4cc(O)cc(O)c4C2=O)cn3C)cc1", "IC50 [nM]": 3890}
{"compound": "CNC(=O)Nc1ccc2c(c1)C(=O)/C(=C/c1c(C(=O)NC)[nH]c3ccc(OC)cc13)O2", "IC50 [nM]": 102}
{"compound": "COc1ccc2c(c1)c(/C=C1\\Oc3cc(O)c(C)cc3C1=O)c(C)n2CCCN(C)C", "IC50 [nM]": 6690}
{"compound": "Cn1cc(/C=C2\\Oc3cc(O)cc(O)c3C2=O)c2c(-c3ccoc3)cccc21", "IC50 [nM]": 3400}
{"compound": "COc1ccc2[nH]c(-c3c(C)nn(C)c3C)c(/C=C3\\Oc4ccc(NC(=O)Nc5ccc(C(=O)N6CCN(C)C(C)C6)cc5)cc4C3=O)c2c1 (stereo not drawn)", "IC50 [nM]": 2.5}
{"compound": "CCn1c(C)c(/C=C2\\Oc3ccc(NC(=O)Nc4ccc(S(=O)(=O)N5CCN(C)CC5)cc4)cc3C2=O)c2cc(OC)ccc21", "IC50 [nM]": 144}
{"compound": "COc1ccc2[nH]c(-c3c(C)nn(C)c3C)c(/C=C3\\Oc4ccc(NC(=O)Nc5ccc(C(=O)NCCN(C)C)cc5)cc4C3=O)c2c1", "IC50 [nM]": 2.25}
{"compound": "CNC(=O)Nc1ccc2c(c1)C(=O)/C(=C/c1c(CN(C)C)[nH]c3ccc(OC)cc13)O2", "IC50 [nM]": 121}
{"compound": "CN1CCN(CCn2cc(/C=C3\\Oc4cc(O)cc(O)c4C3=O)c3c(-c4ccc(C(N)=O)cc4)cccc32)CC1", "IC50 [nM]": 8660}
{"compound": "COc1ccc2c(c1)c(/C=C1\\Oc3c(ccc(O)c3Cl)C1=O)c(C)n2CCCN(C)C", "IC50 [nM]": 3440}
{"compound": "COc1ccc2[nH]c(-c3ccccc3)c(C=C3Oc4c(ccc(O)c4O)C3=O)c2c1", "IC50 [nM]": 439}
{"compound": "COc1ccc2c(c1)c(C=C1Oc3cccc(O)c3C1=O)c(C)n2CCCCl", "IC50 [nM]": 933}
{"compound": "COc1ccc2c(c1)c(C=C1Oc3cc(O)cc(O)c3C1=O)c(C)n2C", "IC50 [nM]": 54.3}
{"compound": "COc1ccc2[nH]cc(CC3Oc4cc(O)cc(O)c4C3=O)c2c1 (stereo not drawn)", "IC50 [nM]": 8600}
